# System: HEK-293T
# Protocol notes: Multiplex assay against HEK293T
# Assay type: toxicity, cell-based
# Reported conditions: human, 48 h, 1 µM, compound concentration 1 uM, replicate 2

{"columns": ["Compound", "Population Fragmented Nuclei (%)"],
 "data": [
  ["CCn1c(-c2nc3cc(C(=O)N4CCCC(N)C4)ccc3n2C)cc2ccccc21.Cl (stereo unspecified)", 13],
  ["Cc1ccc(OCC(O)C(C)NC(C)C)c2c1CCC2.Cl (stereo unspecified)", 11],
  ["Cc1nn(C)c2nc(NNC(=O)Nc3cc(Cl)nc(Cl)c3)cc(C(C)C)c12", 13],
  ["Nc1nc(CC(=O)Nc2ccc(CCNC[C@H](O)c3ccccc3)cc2)cs1 [MIRABEGRON]", 17],
  ["CN1C[C@H](C(=O)N[C@]2(C)O[C@@]3(O)[C@@H]4CCCN4C(=O)[C@H](Cc4ccccc4)N3C2=O)C[C@@H]2c3cccc4[nH]cc(c34)C[C@H]21.CS(=O)(=O)O [DIHYDROERGOTAMINE MESYLATE]", 12],
  ["C=CCN1C[C@H](C(=O)N(CCCN(C)C)C(=O)NCC)C[C@@H]2c3cccc4[nH]cc(c34)C[C@H]21 [CABERGOLINE]", 11],
  ["COCCn1c(C)c(C)s/c1=N\\C(=O)C1C(C)(C)C1(C)C", 11],
  ["CC(C)(C)c1ccc(CSc2cnn(C(C)(C)C)c(=O)c2Cl)cc1 [PYRIDABEN]", 9],
  ["O=C(O)CCC/C=C\\CC1C(O)CC(O)C1/C=C/C(O)COc1cccc(Cl)c1 (stereo unspecified) [CLOPROSTENOL]", 13],
  ["CCCCC[C@H](O)/C=C/[C@H]1[C@H](O)CC(=O)[C@@H]1CCCCCCC(=O)O [ALPROSTADIL]", 16],
  ["Cc1cc(=O)n(C)c2cc(N3C(=O)CC[C@H](NS(=O)(=O)CC(C)C)[C@H]3c3ccc(Cl)cc3)ccc12", 11],
  ["CSc1nc(NC2CCCC2)c([N+](=O)[O-])c(NC2CCCC2)n1 [GS-39783]", 13],
  ["Cc1cc(O)c(-c2ccc([C@@H](C)CN(C)C)cc2)c2c1[nH]c(=O)c1sccc12", 16],
  ["COc1cc2nc(N3CCN(C(=O)COc4c(OC)cccc4C(C)C)CC3)nc(N)c2cc1OC.Cl.Cl", 15],
  ["COCCCN1CCC(NC(=O)c2cc(Cl)c(N)c3c2OCC3)CC1 [PRUCALOPRIDE]", 11],
  ["CCC(=O)OCC(=O)[C@@]1(OC(=O)CC)[C@@H](C)C[C@H]2[C@@H]3CCC4=CC(=O)C=C[C@]4(C)[C@@]3(Cl)[C@@H](O)C[C@@]21C [BECLOMETHASONE DIPROPIONATE]", 12]
]}

---

# System: Fibroblast
# Protocol notes: Multiplex assay against human fibroblast
# Assay type: toxicity, cell-based
# Reported conditions: 24 h, 1 µM, compound concentration 1 uM, replicate 1
Non-standard residues stand in square brackets, D forms with d. Residues, ends and D or L forms follow the SMILES beside them.
# if measured Population Mitochondria Different-Phenotype (%) < 2%: met  # else: not met

{"columns": ["Molecule", "Label value"],
 "data": [
  ["CN(C)C(=O)Cn1cc(-c2ccc(-c3nnc4ccccn34)cc2)cn1", "met"],
  ["Cc1cc(NC(=O)NCCN2CCC(O)(Cc3ccccc3)CC2)c2ccccc2n1", "met"],
  ["Cn1cc(C(=O)OCC2CCN(CCNS(C)(=O)=O)CC2)c2ccccc21", "met"],
  ["C[C@@H]1CC(=O)Nc2cccc(-c3ccc4c(c3)c(-c3cnn(C)c3)nn4C)c2N1", "not met"],
  ["CCn1c(-c2nc3cc(C(=O)N4CCCC(N)C4)ccc3n2C)cc2ccccc21.Cl (stereo not drawn)", "not met"],
  ["CC(C)C[C@@H]1NC(=O)[C@@H](C(C)C)NC(=O)[C@@H]2CCCN2C(=O)[C@@H](CC(=O)O)NC(=O)[C@@H](Cc2c[nH]c3ccccc23)NC1=O [BQ-123] (cyclo(L[dW][dD]P[dV]))", "not met"],
  ["Cc1cc(O)c(-c2ccc([C@@H](C)CN(C)C)cc2)c2c1[nH]c(=O)c1sccc12", "not met"]
]}

meta.source: ChEMBL document CHEMBL5058577
